target: Aurora kinase A (Homo sapiens) (UniProt O14965); details: Compound concentration 20.0 uM
Sequence (O14965 whole entry): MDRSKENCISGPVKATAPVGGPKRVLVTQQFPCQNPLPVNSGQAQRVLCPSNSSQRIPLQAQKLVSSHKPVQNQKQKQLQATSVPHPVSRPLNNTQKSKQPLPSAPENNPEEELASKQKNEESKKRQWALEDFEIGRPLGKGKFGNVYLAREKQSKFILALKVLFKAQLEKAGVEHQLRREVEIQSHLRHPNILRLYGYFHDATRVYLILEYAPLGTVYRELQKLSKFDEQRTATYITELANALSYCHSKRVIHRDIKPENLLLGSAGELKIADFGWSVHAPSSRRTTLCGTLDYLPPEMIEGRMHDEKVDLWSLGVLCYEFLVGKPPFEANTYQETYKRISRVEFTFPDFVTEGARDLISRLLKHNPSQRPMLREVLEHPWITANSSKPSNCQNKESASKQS
Description: Thermal Shift Assay. Domain: start/stop: E122-S403
Residues, ends and D or L forms follow the SMILES beside them. *: point of attachment. Cbz = O=C(OCc1ccccc1)*; CH2F = FC*
measure_name: ΔTm (°C)
Answers are plain numbers, in °C.

C[C@@H]1CN(c2nccc(Nc3ccc4c(c3)n(CCC(C)(C)O)c(=O)n4C)n2)C[C@H](C)C1(F)F	-2.03
CN(C(=O)CCCOc1ccc2[nH]c(=O)ccc2c1)C1CCCCC1	-2.27
N#C[C@@H]1CCCN1C(=O)CNC(=O)c1ccnc2ccc(OCCCN3CCN(C(=O)CN4CCN(CC(=O)O)CCN(CC(=O)O)CCN(CC(=O)O)CC4)CC3)cc12	-2.4
COc1ccc(CC[C@H]2CCC[C@@H](CCc3ccc(OC)cc3)N2C[C@@H](O)CO)cc1	-2.3

Dear reader, for each entry below, please note its ΔTm.
1. O=C(Cc1ccccc1)c1cc(O)c(O)c([N+](=O)[O-])c1
2. N=C(N)SCc1ccc(CN2C(=O)C(=O)c3cc(Br)cc(Br)c32)cc1
3. CCOC(=O)Oc1c(OC)cc(C(=O)O[C@H]2C[C@H]3CN4CCc5c([nH]c6cc(OC)ccc56)[C@@H]4C[C@H]3[C@@H](C(=O)OC)[C@@H]2OC)cc1OC
4. Cc1cc(C(=O)CN2CCC(O)CC2)c(C)n1-c1ccc(C#N)cc1
5. N#Cc1ccc(Nc2cnccc2SCc2ccccc2C(=O)O)c2ccccc12

1: 0; 2: -5.55; 3: -2.27; 4: -2.48; 5: -0.47

Dear reader, for each entry below, please note its ΔTm.
1. CC(=O)Nc1ccc(C(=O)Nc2ccc(F)cc2N)cc1
2. Cc1c(NC(=O)c2cc(C(N)=O)nc3cc(F)ccc23)c(C(F)(F)F)nn1Cc1ccc(C#N)cc1
3. CCCOC(=O)N1CCN(C(=O)c2ccc3c(Cl)cc(-c4ccc(C5(N)CC5)cc4)nc3c2)C[C@H]1C
4. O=C(NC(Cc1ccccc1)C(=O)NC(Cc1ccccc1)C(=O)CF)OCc1ccccc1 (stereo not drawn) (Cbz-Phe-Phe-CH2F; configuration not given here)

1. -2.46
2. -2.13
3. 0.93
4. -2.32

Dear reader, for each entry below, please note its ΔTm.
1. CN1Cc2c(Cl)cc(Cl)cc2[C@H](c2cccc(S(=O)(=O)NCCOCCOCCNC(=O)NCCCCNC(=O)NCCOCCOCCNS(=O)(=O)c3cccc([C@@H]4CN(C)Cc5c(Cl)cc(Cl)cc54)c3)c2)C1
2. CCCNC(=O)[C@H]1O[C@@H]1C(=O)N[C@H](C(=O)N1CCC[C@H]1C(=O)O)[C@@H](C)CC
3. COc1ccccc1C(=O)Nc1cc2c(cc1N1CCNC[C@H]1C)n(C)c(=O)n2C
4. CC(C)c1c(-c2cnn(C(C)(C)C)c2)[nH]c2c(C#N)cnn2c1=O

1: -2.14; 2: -1.17; 3: -0.29; 4: -0.18

###

What ΔTm was measured for each of the following?
biological target: Glycogen synthase kinase-3 beta (Homo sapiens) (UniProt P49841); settings: Compound concentration 20.0 uM
Sequence (P49841 whole entry, looked up): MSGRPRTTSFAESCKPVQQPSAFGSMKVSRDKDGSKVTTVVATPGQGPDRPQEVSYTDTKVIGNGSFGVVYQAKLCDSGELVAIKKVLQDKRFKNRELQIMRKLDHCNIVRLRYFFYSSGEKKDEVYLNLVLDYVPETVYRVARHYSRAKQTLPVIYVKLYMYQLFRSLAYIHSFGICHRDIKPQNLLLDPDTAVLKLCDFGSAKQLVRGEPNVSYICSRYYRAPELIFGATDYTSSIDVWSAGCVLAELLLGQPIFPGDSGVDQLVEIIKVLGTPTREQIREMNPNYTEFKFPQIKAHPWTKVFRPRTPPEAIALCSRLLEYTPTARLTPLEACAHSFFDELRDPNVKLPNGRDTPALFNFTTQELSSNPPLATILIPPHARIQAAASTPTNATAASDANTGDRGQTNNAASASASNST
Description: Thermal Shift Assay. Domain: start/stop: M26-R383
Residues, ends and D or L forms follow the SMILES beside them. *: point of attachment. Cbz = O=C(OCc1ccccc1)*
Answers are plain numbers, in °C.

O=S(=O)(CSc1nnc(Br)n1Cc1ccc(Br)c2ccccc12)Nc1cccnc1	-0.3
N[C@@H](CC(=O)Nc1ccc(Oc2cc(F)c(F)cc2Br)cc1)C(=O)O	-0.55
CNC(=O)N1CCc2c(c(N3CCCc4cc(-c5cnn(C)c5)c(C(F)F)cc43)nn2C2CCOCC2)C1	-0.47
O=CC1CCCN1C(=O)C1CCCN1C(=O)OCc1ccccc1 (stereo not drawn) (Cbz-Pro-Pro-aldehyde; configuration not given here)	-0.2
Cc1ccc(NC2=CC(=O)c3sc(C)nc3C2=O)cc1	-0.8
CC(C)N(CCCNC(=O)Nc1ccc(C(C)(C)C)cc1)C[C@H]1O[C@@H](n2ccc3c(N)ncnc32)[C@H](O)[C@@H]1O	-0.31
CN(CCCCCCNc1ccnc2cc(Cl)ccc12)CCCCCCNc1ccnc2cc(Cl)ccc12	-0.7
N[C@@H](CCCCNC(=O)OCc1ccc([N+](=O)[O-])cc1)C(=O)N1CCCC1	-0.58

Dear reader, for each entry below, please note its ΔTm.
1. O=C(NCCCOc1ccc2[nH]c(=O)ccc2c1)N(C1CC1)[C@@H]1CCCC[C@H]1O
2. CCN(C(=O)c1cc(F)ccc1Oc1cncnc1N1CC2(CCN(C[C@H]3CC[C@H](NS(=O)(=O)CC)CC3)CC2)C1)C(C)C

1: -0.66; 2: -0.74

###

biological target: Aurora kinase A (Homo sapiens) (UniProt O14965); details: Compound concentration 20.0 uM
Non-standard residues stand in square brackets, D forms with d. Residues, ends and D or L forms follow the SMILES beside them. *: point of attachment. Tyr(3-Cl) = N[C@@H](Cc1ccc(O)c(Cl)c1)C(=O)O; Benzoyl(3,5-Cl2) = O=C(c1cc(Cl)cc(Cl)c1)*; Lys(Et2) = CCN(CC)CCCC[C@H](N)C(=O)O; Gly(cPent) = N[C@H](C(=O)O)C1CCCC1; NH(propargyl) = C#CCN*
measure_name: ΔTm (°C)
One number for each entry, in °C.

Worked set:
CC(C)(O)c1ccc(-c2nc3c(F)cc(F)cc3c(=O)[nH]2)cc1	-0.15
CCOc1ccc2nc(-c3cccc(OCC(=O)NC(C)C)c3)nc(Nc3ccc(-c4cn[nH]c4)cc3)c2c1	0
C#CCNC(=O)[C@H](CO)NC(=O)[C@H](CCCCN(CC)CC)NC(=O)[C@@H](NC(=O)[C@@H](NC(=O)[C@H](Cc1ccc(O)c(Cl)c1)NC(=O)c1cc(Cl)cc(Cl)c1)C1CCCC1)[C@@H](C)CC ({Benzoyl(3,5-Cl2)}-[Tyr(3-Cl)][Gly(cPent)]I[Lys(Et2)]S-{NH(propargyl)})	-2.28
CS(=O)(=O)c1ncn2c(NCc3c(F)ccc4c3CCO4)ncc(-c3ccc(C4CC4)nc3)c12	-2.48
Cn1ncnc1[C@H]1C2=c3c(cc(F)cc3=N[C@@H]1c1ccc(F)cc1)C(=O)NN2	-1.59
CC#CCn1c(N2CCC[C@@H](N)C2)nc2c1c(=O)n(Cc1nc(C)c3ccccc3n1)c(=O)n2C	-0.13
O=C(O)/C(S)=C/c1ccc(I)cc1	0.99
CCCC1O[C@@H]2C[C@H]3[C@@H]4CCC5=CC(=O)C=C[C@]5(C)[C@H]4[C@@H](O)C[C@]3(C)[C@]2(C(=O)CO)O1 (some centres not stated)	-0.16
Cn1c(=O)cc(N2CCC[C@@H](N)C2)n(Cc2cc(F)ccc2C#N)c1=O	-0.72
CC(C)NCC(O)COC(Cn1c2ccccc2c2ccccc21)Cn1c2ccccc2c2ccccc21 (configuration not stated)	-0.78

Dear reader, for each entry below, please note its ΔTm.
1. COc1ccc(Cc2nc(O)c3c(C)nc([C@@H](CCCc4ccccc4)[C@@H](C)O)n3n2)cc1OC
2. CCCC[C@]1(CC)CS(=O)(=O)c2cc(CNC(CC(=O)O)CC(=O)O)c(OC)cc2[C@@H](c2ccccc2)N1
3. Cc1nc(N)c2nnn(C[C@H]3CN(Cc4nccs4)CCO3)c2n1
4. O=C(CCCCCCC(=O)Nc1ccc([C@H]2O[C@@H](CSc3nc(-c4ccccc4)c(-c4ccccc4)o3)C[C@@H](c3ccc(CO)cc3)O2)cc1)NO
5. CCn1c(=O)c(C)cn(Cc2nnc(-c3ccc(F)c(O)c3F)s2)c1=O
6. Cc1c(CN2CCC(Nc3ncnc4sc(CC(F)(F)F)cc34)CC2)ccc2[nH]c(C#N)cc12
7. O=S(=O)(O)c1ccc2cc(/N=N/c3cc(S(=O)(=O)O)c4cccnc4c3O)ccc2c1
8. NC(=O)c1cccc(NC(=O)CCC(=O)NCCc2cn(CCNS(=O)(=O)c3cccc(C(=O)O)c3)nn2)c1

[-1.36, -1.84, -1.7, 2.82, -0.34, -7.15, -2.45, -2.28]

###

target: Tyrosine-protein kinase ABL1 (Homo sapiens); conditions: Compound concentration 20.0 uM
Description: Thermal Shift Assay. Domain: start/stop: S229-K512
measure_name: ΔTm

Worked set:
Cc1cc(OCc2nnc(SC3CCCC3)n2-c2cccnc2)ccc1-c1ccc(S(C)(=O)=O)cc1	-1.4 °C
NCCCOc1cc2ccccc2cc1C(=O)NCCOc1cc2ccccc2cc1C(=O)Nc1ccc(Cl)cc1O	0.27 °C
Cc1ccnc(NS(=O)(=O)c2ccc(NC(=O)Nc3ccc(S(=O)(=O)Nc4nccc(C)n4)cc3)cc2)n1	0.29 °C
CC(=O)C(=Cc1cc(O)c(O)c([N+](=O)[O-])c1)C(C)=O	0.06 °C
CN(CCCCCCNc1ccnc2cc(Cl)ccc12)CCCCCCNc1ccnc2cc(Cl)ccc12	-1.1 °C

Dear reader, for each entry below, please note its ΔTm.
1. Cc1ccsc1C(=CCCN1CCC[C@@H](C(=O)O)C1)c1sccc1C
2. COC[C@@H]1CCCN1S(=O)(=O)c1ccc2c(c1)C(=O)C(=O)N2
3. Cc1cc(OCCCNCC(C)(C)C(N)=O)ccc1Cc1c(O[C@@H]2O[C@H](CO)[C@@H](O)[C@H](O)[C@H]2O)n[nH]c1C(C)C
4. O=C(c1ccc2c(ccn2-c2ccc(F)cc2)c1)N1CC(N2CCN(C(=O)c3nccs3)CC2)C1

["0.26 °C", "0.35 °C", "0.7 °C", "0.62 °C"]

Measured values drawn from ChEMBL document CHEMBL5724796 for this set.
